system: SW-620; test: NCI tumour cell line growth inhibition, 48 h
Calls of active or inactive are those of the source. Rule as the data show it: active = GI50 up to about 1.1 µM and inactive = higher.
Outcomes: active, inactive

• Cn1c(CO)ccc1-c1ccc(-c2ccc(CO)[se]2)[se]1 = inactive
• O=c1[nH]c(=S)[nH]n1C(=S)n1[nH]c(=S)[nH]c1=O = inactive
• O=[N+]([O-])c1cc(F)ccc1S(=O)(=O)c1ccccc1 = inactive
• COc1ccc2nc3c([N+](=O)[O-])ccc4c3c(c2c1)N=CN4CCCN(C)C = active
• CCOC(=O)C1C(=O)CC(O)(c2ccccc2)C(C(=O)OCC)C1c1ccc(N(C)C)cc1 (stereo not given) = inactive
